Where do the numbers come from? From patent US9371374.

Reported OD492 values for the following binders.
System Name: T1, HCV Core1-169 (HCV-1, UniProt P26664 1-169)
T1 construct: also called Solid Phase HCV Core
T1 sequence: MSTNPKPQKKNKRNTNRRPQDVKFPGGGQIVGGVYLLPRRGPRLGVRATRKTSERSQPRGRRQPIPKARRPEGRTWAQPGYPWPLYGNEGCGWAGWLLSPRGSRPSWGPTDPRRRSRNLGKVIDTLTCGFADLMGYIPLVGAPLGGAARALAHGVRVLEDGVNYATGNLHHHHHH
Test Details: sandwich EIA, capture 208A-692

Binder: HCV 208A-741 (antibody, V domains shown) VH: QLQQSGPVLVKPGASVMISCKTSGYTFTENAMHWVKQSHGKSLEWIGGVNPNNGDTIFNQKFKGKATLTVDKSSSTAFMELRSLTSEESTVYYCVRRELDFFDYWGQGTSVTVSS VL: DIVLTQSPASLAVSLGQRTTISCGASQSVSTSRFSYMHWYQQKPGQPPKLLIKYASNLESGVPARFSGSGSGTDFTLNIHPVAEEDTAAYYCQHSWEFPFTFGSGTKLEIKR
OD492: 0.32 OD
//
Binder: HCV 208A-207 (antibody, V domains shown) VH: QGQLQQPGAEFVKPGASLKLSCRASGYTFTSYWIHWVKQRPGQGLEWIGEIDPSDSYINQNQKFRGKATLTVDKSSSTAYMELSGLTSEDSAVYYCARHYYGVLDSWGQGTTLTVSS VL: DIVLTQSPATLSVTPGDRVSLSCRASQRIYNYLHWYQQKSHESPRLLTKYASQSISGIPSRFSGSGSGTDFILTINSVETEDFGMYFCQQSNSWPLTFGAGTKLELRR
OD492: 0.42 OD
//
Binder: HCV 208B-395 (antibody, V domains shown) VH: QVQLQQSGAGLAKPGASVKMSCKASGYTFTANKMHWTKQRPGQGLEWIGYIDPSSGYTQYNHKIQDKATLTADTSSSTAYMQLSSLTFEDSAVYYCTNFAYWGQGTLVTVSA VL: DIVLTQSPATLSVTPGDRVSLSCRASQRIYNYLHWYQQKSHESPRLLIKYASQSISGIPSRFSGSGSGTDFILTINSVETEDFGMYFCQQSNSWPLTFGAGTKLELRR
OD492: 0.15 OD
